Below, each of the molecules is paired with its reported logD value.
# MEASUREMENT PROTOCOL: Octanol-water distribution coefficient (logD7.4)
# CONDITION INFO: octanol/water, pH 7.4
Starred links: 1 amine or outer side, 2 acyl side, 3 side chain; linkers in the order of their positions; H or OH if unused. Non-standard residues stand in square brackets, D forms with d. Residues, ends and D or L forms follow the SMILES beside them. X20 = C[C@H](NC(=S)[C@@H](C)N[*:1])C(=O)[*:2]
MEASUREMENT KIND: logD

                                   molecule  measurement_kind  recorded_result
0  C[C@@H]1NC(=O)[C@H](C)NC(=O)[C@H](C)NC(=S)[C@@H](C)NC(=O)[C@H](C)NC(=O)[C@H](C)NC1=O [9a] (cyclo([X20]AAAA))              logD            -0.67
1  C[C@@H]1NC(=O)[C@H](C)NC(=O)[C@@H](C)NC(=O)[C@H](C)NC(=S)[C@H](C)NC(=O)[C@H](C)NC1=O              logD            -0.54
2  C[C@@H]1NC(=O)[C@H](C)NC(=O)[C@H](C)NC(=O)[C@@H](C)NC(=O)[C@H](C)NC(=O)[C@H](C)NC1=O [compound 9, cyclo(-D-Ala-L-Ala5-)]              logD            -2.48
3  C[C@@H]1NC(=O)[C@H](C)NC(=O)[C@H](C)NC(=O)[C@@H](C)NC(=S)[C@H](C)NC(=O)[C@H](C)NC1=O              logD            -0.24
4  C[C@@H]1NC(=O)[C@H](C)NC(=O)[C@@H](C)NC(=S)[C@H](C)NC(=O)[C@H](C)NC1=O              logD            -0.14
5  C[C@@H]1NC(=O)[C@H](C)NC(=O)[C@H](C)NC(=S)[C@@H](C)NC(=O)[C@H](C)NC1=O              logD            -0.32
6  C[C@@H]1NC(=O)[C@H](C)NC(=O)[C@@H](C)NC(=O)[C@H](C)NC(=S)[C@H](C)NC1=O              logD            -0.23
7  C[C@@H]1NC(=O)[C@H](C)NC(=S)[C@H](C)NC(=O)[C@H](C)NC(=O)[C@@H](C)NC(=O)[C@H](C)NC1=O              logD            -0.59
8  C[C@@H]1NC(=O)[C@H](C)NC(=O)[C@@H](C)NC(=O)[C@H](C)NC(=O)[C@H](C)NC(=S)[C@H](C)NC1=O              logD            -0.67

---

# MEASUREMENT PROTOCOL: in vitro
# CONDITION INFO: both, human, plasma
Starred links: 1 amine or outer side, 2 acyl side, 3 side chain; linkers in the order of their positions; H or OH if unused. Non-standard residues stand in square brackets, D forms with d. Residues, ends and D or L forms follow the SMILES beside them. X1 = CC(C)C[C@H](NC(=S)[C@H](Cc1ccc(O)cc1)N[*:1])C(=O)[*:2]; X2 = CC(C)C[C@H](NC(=S)[C@@H](CC(C)C)N[*:1])C(=O)[*:2]; X3 = CC(C)C[C@H](N[*:1])C(=S)N[C@H](CC(C)C)C(=O)[*:2]
Below, each of the compounds is paired with its reported remaining at 36 h value.

COMPOUND	MEASUREMENT UNIT	remaining at 36 h
CC(C)C[C@@H]1NC(=O)[C@@H](CC(C)C)NC(=O)[C@H](CC(C)C)NC(=S)[C@H](Cc2ccc(O)cc2)NC(=O)[C@H]2CCCN2C(=O)[C@H](CC(C)C)NC1=O [10e] (cyclo(LL[dP][X1][dL]))	%	43
CC(C)C[C@@H]1NC(=O)[C@@H](CC(C)C)NC(=S)[C@H](CC(C)C)NC(=O)[C@H](Cc2ccc(O)cc2)NC(=O)[C@H]2CCCN2C(=O)[C@H](CC(C)C)NC1=O [10f] (cyclo(LL[dP]Y[X3]))	%	22
CC(C)C[C@@H]1NC(=O)[C@H](Cc2ccc(O)cc2)NC(=O)[C@H]2CCCN2C(=O)[C@H](CC(C)C)NC(=O)[C@H](CC(C)C)NC(=S)[C@@H](CC(C)C)NC1=O [10a] (cyclo(L[dP]YL[X2]))	%	33

---

# MEASUREMENT PROTOCOL: in vitro
# CONDITION INFO: pig, simulated intestinal fluid
Non-standard residues stand in square brackets, D forms with d. Residues, ends and D or L forms follow the SMILES beside them. NMeY = CN[C@@H](Cc1ccc(O)cc1)C(=O)O; NMeL = CN[C@@H](CC(C)C)C(=O)O
Below, each of the molecules is paired with its reported remaining at 12 h value.

MOLECULE	remaining at 12 h [%]
CC(C)C[C@@H]1NC(=O)[C@H](Cc2ccc(O)cc2)NC(=O)[C@H]2CCCN2C(=O)[C@H](CC(C)C)NC(=O)[C@H](CC(C)C)N(C)C(=O)[C@@H](CC(C)C)NC1=O [10h] (cyclo(L[dL][NMeL]L[dP]Y))	1
CC(C)C[C@@H]1NC(=O)[C@@H](CC(C)C)NC(=O)[C@H](CC(C)C)NC(=O)[C@H](Cc2ccc(O)cc2)N(C)C(=O)[C@H]2CCCN2C(=O)[C@H](CC(C)C)NC1=O [10j] (cyclo(LL[dP][NMeY]L[dL]))	0

---

# System: Caco-2 cells;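 note: Caco-2 monolayers used 21 days after seeding in HBSS-HEPES buffer with 1% DMSO, donor and acceptor levels quantified by LC-MS/MS, TEER checked before and after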
# MEASUREMENT PROTOCOL: in vitro
# Type: in vitro ADME, human
# CONDITION INFO: Caco-2
Starred links: 1 amine or outer side, 2 acyl side, 3 side chain; linkers in the order of their positions; H or OH if unused. Non-standard residues stand in square brackets, D forms with d. Residues, ends and D or L forms follow the SMILES beside them. X1 = CC(C)C[C@H](NC(=S)[C@H](Cc1ccc(O)cc1)N[*:1])C(=O)[*:2]; X2 = CC(C)C[C@H](NC(=S)[C@@H](CC(C)C)N[*:1])C(=O)[*:2]; X3 = CC(C)C[C@H](N[*:1])C(=S)N[C@H](CC(C)C)C(=O)[*:2]; X4 = CC(C)C[C@H](N[*:1])C(=S)N1CCC[C@@H]1C(=O)[*:2]
MEASUREMENT KIND: Papp B-A set 2 (second block) (×10⁻⁶ cm/s)

COMPOUND	MEASUREMENT UNIT	RECORDED RESULT
C[C@H]1O[C@@H](O[C@H]2[C@@H](O)C[C@H](O[C@H]3[C@@H](O)C[C@H](O[C@H]4CC[C@@]5(C)[C@H](CC[C@@H]6[C@@H]5C[C@@H](O)[C@]5(C)[C@@H](C7=CC(=O)OC7)CC[C@]65O)C4)O[C@@H]3C)O[C@@H]2C)C[C@H](O)[C@@H]1O [Digoxin, reference compound]	×10⁻⁶ cm/s	30.4
CC(C)C[C@@H]1NC(=O)[C@H](Cc2ccc(O)cc2)NC(=O)[C@H]2CCCN2C(=S)[C@H](CC(C)C)NC(=O)[C@H](CC(C)C)NC(=O)[C@@H](CC(C)C)NC1=O [10c] (cyclo(L[dL]L[X4]Y))	×10⁻⁶ cm/s	6.1
CC(C)NCC(O)COc1cccc2ccccc12 (stereo not drawn) [Propranolol, reference compound]	×10⁻⁶ cm/s	30.7
CC(C)C[C@@H]1NC(=O)[C@H](Cc2ccc(O)cc2)NC(=O)[C@H]2CCCN2C(=O)[C@H](CC(C)C)NC(=O)[C@H](CC(C)C)NC(=S)[C@@H](CC(C)C)NC1=O [10a] (cyclo(L[dP]YL[X2]))	×10⁻⁶ cm/s	73.3
CC(C)C[C@@H]1NC(=O)[C@@H](CC(C)C)NC(=O)[C@H](CC(C)C)NC(=S)[C@H](Cc2ccc(O)cc2)NC(=O)[C@H]2CCCN2C(=O)[C@H](CC(C)C)NC1=O [10e] (cyclo(LL[dP][X1][dL]))	×10⁻⁶ cm/s	36.7
CC(C)C[C@@H]1NC(=O)[C@@H](CC(C)C)NC(=S)[C@H](CC(C)C)NC(=O)[C@H](Cc2ccc(O)cc2)NC(=O)[C@H]2CCCN2C(=O)[C@H](CC(C)C)NC1=O [10f] (cyclo(LL[dP]Y[X3]))	×10⁻⁶ cm/s	43.9

---

# MEASUREMENT PROTOCOL: in vitro
# CONDITION INFO: both, human, plasma
Starred links: 1 amine or outer side, 2 acyl side, 3 side chain; linkers in the order of their positions; H or OH if unused. Non-standard residues stand in square brackets, D forms with d. Residues, ends and D or L forms follow the SMILES beside them. X6 = O=C([C@H](Cc1ccc(O)cc1)NC(=S)[C@H]1CCCN1[*:1])[*:2]; NMeL = CN[C@@H](CC(C)C)C(=O)O; dNMeL = CN[C@H](CC(C)C)C(=O)O
Below, each of the compounds is paired with its reported remaining at 24 h value.

COMPOUND	remaining at 24 h
CC(C)C[C@@H]1NC(=O)[C@@H](CC(C)C)N(C)C(=O)[C@H](CC(C)C)NC(=O)[C@H](Cc2ccc(O)cc2)NC(=O)[C@H]2CCCN2C(=O)[C@H](CC(C)C)NC1=O [10g] (cyclo(LL[dP]YL[dNMeL]))	28%
CC(C)C[C@@H]1NC(=O)[C@H](Cc2ccc(O)cc2)NC(=S)[C@H]2CCCN2C(=O)[C@H](CC(C)C)NC(=O)[C@H](CC(C)C)NC(=O)[C@@H](CC(C)C)NC1=O [10d] (cyclo(LL[X6]L[dL]))	46%
CC(C)C[C@@H]1NC(=O)[C@H](Cc2ccc(O)cc2)NC(=O)[C@H]2CCCN2C(=O)[C@H](CC(C)C)NC(=O)[C@H](CC(C)C)N(C)C(=O)[C@@H](CC(C)C)NC1=O [10h] (cyclo(L[dL][NMeL]L[dP]Y))	30%
